Source of measurements: patent US11718628B2

- Protocol Notes: In vivo pharmacokinetic properties in mice (IV and PO)
- Parameters: species or system C57BL/6J mice
- Settings: mouse, in vivo, iv, 2 mg/kg
Assay Readout: Intravenous Delivery (IV) CL (mL/min/kg)
Numbers only, in mL/min/kg.

Quick request: Intravenous Delivery (IV) CL for each listed item, please.
1. CC(C)(C)c1cc(-c2cncc(-c3ccc(C(=O)N4CCC(O)CC4)cc3Cl)c2)ccn1 [Compound Z-725]
2. CC1(O)CCN(C(=O)c2ccc(-c3cncc(-c4ccnc(C(C)(C)C)c4)c3)c(Cl)c2)CC1 [Compound Z-780]
3. CC(C)(C)c1cc(-c2cncc(-c3c(Cl)cc(C(=O)N4CCC(O)CC4)cc3Cl)c2)ccn1 [Z-826]
4. CC(C)OC(=O)Nc1ccc(-c2cncc(-c3ccnc(C(C)(C)C)c3)c2)c(Cl)c1 [Compound Z-774]

Ans:
1. 17.5
2. 36.3
3. 8.45
4. 18.5
